The measurements presented in this section are drawn from paper doi:10.1101/2024.05.01.590489.

- experimental_system: AAV9 capsid (adeno-associated virus serotype 9 (AAV9), UniProt Q6JC40)
- protocol: cryo-EM structure

# binder, binding result
rows = [
    ("Fab1-5 (Fab, V domains shown) VH: EVQLVESGGGLVKPGGSLRLSCAASGFMFSSYSMNWVRQAPGKGLEWVSSISRSDSYIDYADSVKGRFTISRDTAMNVLYLQMDSLRAEDTGVYYCARTHVFNMFREVINDDYYGMDVWGQGTTVTVS VL: ALTQPASVSGSPGQSITISCTGTSSDFGIYNSVSWYQHHPGKAPKLMIFGVSNRPSGVSNRFSGSKSGNTASLSISGLQAEDEADYYCSSFTARSTVVFGGGTKLTVL", "binds"),
    ("Fab1-7 (Fab, V domains shown) VH: QVQLQESGPGLVKPSETLSLTCTVSGDSIRSYYWSWIRQPPGKGLEWIGHIYYSGSTNYKPSLKSRATILVDTSKNQFSLKLRSVTAADTAVYYCAREMTGVAGRGWDHWGQGTLVTVSS VL: ALTQPPSASGTPGQRVTISCSGSSSNIGSNTVNWYQQLPGTAPKLLIFINNQRPSGVPDRFSGSKSGTSASLAISGLQSEDEADYYCTTWDGSLNGYVFGTRTEVTVL", "binds"),
    ("Fab3-3 (Fab, V domains shown) VH: QVQLQESGPGLVKSSETLSLTCTVSGESISSSSHYWGWIRQPPGKGLEFLGNVYYLGSTYYNPSLESRVTILLDTSKNQFSLKVNSVTVADTAVYYCARHGAGSYSGLFFDYWGQGARVIVSS VL: DIQMTQSPSFVSASVGDRVNITCRASQGINSWLAWYQQKPGKAPKLLIYSASSLQSGVPSRFSGSGSGTDFTLTISTLQPEDFATYYCQQANSFPYTFGQGTKVD", "binds"),
    ("Fab1-2 (Fab, V domains shown) VH: EVQLVESGGGLVQPGGSLRLSCAASGFIFSNYWMSWVRQAPGKGPEWVANIKQDGSANHYVDSVKGRFTISRDNAKNSLYLQMNSLRAEDTAVYYCAREAYQDWNYDYWGQGTLVTVSS VL: DIQMTQSPSSLSASVGDRVTVTCRASEFISRYLNWYQQKPGKAPKVLIYAASSLQSGVPSRFSGSGSGTDFTLTISSLQPEDFATYYCQQSYSTPYTFGQGTKLEIK", "binds"),
    ("Fab2-3 (Fab, V domains shown) VH: VQLVESGGGLVKPGGSLRLSCATSGFTFSDYYMSWIRQAPGKGLEWVSYISSSGSTIYYADSVKGRFTMSRDNAKNSLFLRMNSLRAEDTAVYYCARDQITVDREVIRAHYYYGMDVWGQGTTVTVS VL: DIQMTQSPSSVSASVGDRVTITCRASQGINSYLAWYQQKPGKAPKLLIYAASSLESGVPSRFSGSGSGTDFTLTISSLQPEDFATYYCQQANSFPLTFGGGTKVDI", "binds"),
]
